system: BT-549; assay: Cytotoxicity against Homo sapiens (human) BT549 cells after 48 hr by SRB assay; format: functional; conditions: BT-549, 48 h
MEASURE: GI50 (µM)
Just the number please, in µM, no unit attached.

Answered examples (3):
O=C1CCS/C(=N\S(=O)(=O)c2ccc(N3N=C4c5ccccc5CC4C3c3cccs3)cc2)N1C(=O)c1ccccc1 (centres undefined): 4.77
O=C(Nc1ccccc1)NS(=O)(=O)c1ccc(N2N=C3c4ccccc4CC3C2c2cccnc2)cc1 (centres undefined): 30.6
NS(=O)(=O)c1ccc(N2N=C3c4ccccc4CC3C2c2cccs2)cc1 (centres undefined): 19.3

Exam item: GET /values?readout=GI50&system=BT-549&item= O=C1CS/C(=N\S(=O)(=O)c2ccc(N3N=C4c5ccccc5CC4C3c3cccs3)cc2)N1C(=O)c1ccccc1 (centres undefined)
Marked response: 33.5

====

# reported log10(GI50); entries follow
system: SK-MEL-5; experiment: Cytotoxicity against Homo sapiens (human) SK-MEL-5 cells after 48 hr by SRB assay; type: functional; details: SK-MEL-5, 48 h
Heads up: the numbers are on a log10 scale; they represent GI50 in µM.

O=S(=O)(NC(=S)Nc1ccccc1)c1ccc(N2N=C3c4ccccc4CC3C2c2cccs2)cc1 (stereo not drawn): 1.32
O=C1CCS/C(=N\S(=O)(=O)c2ccc(N3N=C4c5ccccc5CC4C3c3cccs3)cc2)N1c1ccccc1 (stereo not drawn): 1.15

Exam item: GET /values?readout=log10(GI50)&system=SK-MEL-5&item= O=C(NC(=S)NS(=O)(=O)c1ccc(N2N=C3c4ccccc4CC3C2c2cccs2)cc1)c1ccccc1 (stereo not drawn)
Marked response: 1.23

Exam item: Let us now turn to O=C1CCS/C(=N\S(=O)(=O)c2ccc(N3N=C4c5ccccc5CC4C3c3cccs3)cc2)N1C(=O)c1ccccc1 (stereo not drawn)
Marked response: 0.41

Exam item: Let us now turn to O=C(Nc1ccccc1)NS(=O)(=O)c1ccc(N2N=C3c4ccccc4CC3C2c2cccnc2)cc1 (stereo not drawn)
Marked response: 1.37

Exam item: Let us now turn to NS(=O)(=O)c1ccc(-n2nc3c(c2-c2cccs2)Cc2ccccc2-3)cc1
Marked response: 1.02

Exam item: Let us now turn to O=C1CS/C(=N\S(=O)(=O)c2ccc(N3N=C4c5ccccc5CC4C3c3cccs3)cc2)N1C(=O)c1ccccc1 (stereo not drawn)
Marked response: 1.36

Exam item: Let us now turn to O=C1CS/C(=N\S(=O)(=O)c2ccc(N3N=C4c5ccccc5CC4C3c3cccs3)cc2)N(c2ccccc2)C1 (stereo not drawn)
Marked response: 1.58

Exam item: Let us now turn to NS(=O)(=O)c1ccc(N2N=C3c4ccccc4CC3C2c2cccs2)cc1 (stereo not drawn)
Marked response: 1.26

Exam item: Let us now turn to O=S(=O)(/N=c1\scc(-c2ccccc2)n1-c1ccccc1)c1ccc(N2N=C3c4ccccc4CC3C2c2cccs2)cc1 (stereo not drawn)
Marked response: 1.68

Exam item: Let us now turn to O=C(Nc1ccccc1)NS(=O)(=O)c1ccc(-n2nc3c(c2-c2cccs2)Cc2ccccc2-3)cc1
Marked response: 1.19

Exam item: Let us now turn to O=C(NC1CCCCC1)NS(=O)(=O)c1ccc(-n2nc3c(c2-c2cccs2)Cc2ccccc2-3)cc1
Marked response: 1.27

Exam item: Let us now turn to O=C(c1ccccc1)n1c(-c2ccccc2)cs/c1=N\S(=O)(=O)c1ccc(N2N=C3c4ccccc4CC3C2c2cccs2)cc1 (stereo not drawn)
Marked response: 1.39

====

tested on: RPMI-8226; test: Cytotoxicity against Homo sapiens (human) RPMI8226 cells after 48 hr by SRB assay; type: functional; details: RPMI-8226, 48 h
# reported log10(GI50); entries follow
Heads up: the numbers are on a log10 scale; they represent GI50 in µM.

Exam item: Bench note: what log10(GI50) did O=C1CCS/C(=N\S(=O)(=O)c2ccc(N3N=C4c5ccccc5CC4C3c3cccs3)cc2)N1C(=O)c1ccccc1 (stereo not drawn) show?
Marked response: 1.77

====

tested on: SF-295; experiment: Cytotoxicity against Homo sapiens (human) SF295 cells after 48 hr by SRB assay; type: functional; conditions: SF-295, 48 h
MEASURE: GI50 (µM)
Just the number please, in µM, no unit attached.

O=C(NC(=S)NS(=O)(=O)c1ccc(N2N=C3c4ccccc4CC3C2c2cccs2)cc1)c1ccccc1 (stereo not drawn): 25.4

Exam item: Bench note: what GI50 did O=C(Nc1ccccc1)NS(=O)(=O)c1ccc(N2N=C3c4ccccc4CC3C2c2cccnc2)cc1 (stereo not drawn) show?
Marked response: 20.6

Exam item: Let us now turn to NS(=O)(=O)c1ccc(N2N=C3c4ccccc4CC3C2c2cccs2)cc1 (stereo not drawn)
Marked response: 16.2

Exam item: Let us now turn to O=C(Nc1ccccc1)NS(=O)(=O)c1ccc(-n2nc3c(c2-c2cccs2)Cc2ccccc2-3)cc1
Marked response: 21.9

Exam item: Let us now turn to O=S(=O)(/N=c1\scc(-c2ccccc2)n1-c1ccccc1)c1ccc(N2N=C3c4ccccc4CC3C2c2cccs2)cc1 (stereo not drawn)
Marked response: 54.5

Exam item: Let us now turn to O=C1CCS/C(=N\S(=O)(=O)c2ccc(N3N=C4c5ccccc5CC4C3c3cccs3)cc2)N1c1ccccc1 (stereo not drawn)
Marked response: 15.8

Exam item: Let us now turn to O=C1CCS/C(=N\S(=O)(=O)c2ccc(N3N=C4c5ccccc5CC4C3c3cccs3)cc2)N1C(=O)c1ccccc1 (stereo not drawn)
Marked response: 32.7

Exam item: Let us now turn to O=C1CS/C(=N\S(=O)(=O)c2ccc(N3N=C4c5ccccc5CC4C3c3cccs3)cc2)N(c2ccccc2)C1 (stereo not drawn)
Marked response: 32.7

====

# reported GI50; entries follow
test: Cytotoxicity against Homo sapiens (human) colon cancer cells after 48 hr by SRB assay; format: functional; settings: Cancer cell lines
Just the number please, in µM, no unit attached.

O=C1CS/C(=N\S(=O)(=O)c2ccc(N3N=C4c5ccccc5CC4C3c3cccs3)cc2)N1C(=O)c1ccccc1 (stereo not drawn): 40.4
O=S(=O)(NC(=S)Nc1ccccc1)c1ccc(N2N=C3c4ccccc4CC3C2c2cccs2)cc1 (stereo not drawn): 25.9
O=C(NC(=S)NS(=O)(=O)c1ccc(N2N=C3c4ccccc4CC3C2c2cccs2)cc1)c1ccccc1 (stereo not drawn): 35.5
NS(=O)(=O)c1ccc(-n2nc3c(c2-c2cccs2)Cc2ccccc2-3)cc1: 14.9
O=C(c1ccccc1)n1c(-c2ccccc2)cs/c1=N\S(=O)(=O)c1ccc(N2N=C3c4ccccc4CC3C2c2cccs2)cc1 (stereo not drawn): 53.3

Exam item: Bench note: what GI50 did O=C1CS/C(=N\S(=O)(=O)c2ccc(N3N=C4c5ccccc5CC4C3c3cccs3)cc2)N(c2ccccc2)C1 (stereo not drawn) show?
Marked response: 37.2

Exam item: Let us now turn to O=C1CCS/C(=N\S(=O)(=O)c2ccc(N3N=C4c5ccccc5CC4C3c3cccs3)cc2)N1c1ccccc1 (stereo not drawn)
Marked response: 24.1

Exam item: Let us now turn to NS(=O)(=O)c1ccc(N2N=C3c4ccccc4CC3C2c2cccs2)cc1 (stereo not drawn)
Marked response: 28

====

experiment: Cytotoxicity against Homo sapiens (human) CNS cancer cells after 48 hr by SRB assay; format: functional; conditions: Cancer cell lines
MEASURE: GI50 (µM)
Just the number please, in µM, no unit attached.

Answered examples (10):
O=C1CCS/C(=N\S(=O)(=O)c2ccc(N3N=C4c5ccccc5CC4C3c3cccs3)cc2)N1C(=O)c1ccccc1 (stereo not drawn): 36.7
O=C(Nc1ccccc1)NS(=O)(=O)c1ccc(-n2nc3c(c2-c2cccs2)Cc2ccccc2-3)cc1: 44.4
O=C1CCS/C(=N\S(=O)(=O)c2ccc(N3N=C4c5ccccc5CC4C3c3cccs3)cc2)N1c1ccccc1 (stereo not drawn): 34.1
O=C1CS/C(=N\S(=O)(=O)c2ccc(N3N=C4c5ccccc5CC4C3c3cccs3)cc2)N(c2ccccc2)C1 (stereo not drawn): 57.4
NS(=O)(=O)c1ccc(N2N=C3c4ccccc4CC3C2c2cccs2)cc1 (stereo not drawn): 36.4
O=C1CS/C(=N\S(=O)(=O)c2ccc(N3N=C4c5ccccc5CC4C3c3cccs3)cc2)N1C(=O)c1ccccc1 (stereo not drawn): 64.9
NS(=O)(=O)c1ccc(-n2nc3c(c2-c2cccs2)Cc2ccccc2-3)cc1: 31.8
O=C(NC(=S)NS(=O)(=O)c1ccc(N2N=C3c4ccccc4CC3C2c2cccs2)cc1)c1ccccc1 (stereo not drawn): 53.3
O=C(Nc1ccccc1)NS(=O)(=O)c1ccc(N2N=C3c4ccccc4CC3C2c2cccnc2)cc1 (stereo not drawn): 54.8
O=S(=O)(NC(=S)Nc1ccccc1)c1ccc(N2N=C3c4ccccc4CC3C2c2cccs2)cc1 (stereo not drawn): 34

Exam item: Bench note: what GI50 did O=C(NC1CCCCC1)NS(=O)(=O)c1ccc(-n2nc3c(c2-c2cccs2)Cc2ccccc2-3)cc1 show?
Marked response: 49.5

Exam item: Let us now turn to O=C(c1ccccc1)n1c(-c2ccccc2)cs/c1=N\S(=O)(=O)c1ccc(N2N=C3c4ccccc4CC3C2c2cccs2)cc1 (stereo not drawn)
Marked response: 64.5

Exam item: Let us now turn to O=S(=O)(/N=c1\scc(-c2ccccc2)n1-c1ccccc1)c1ccc(N2N=C3c4ccccc4CC3C2c2cccs2)cc1 (stereo not drawn)
Marked response: 80.9
